Origin of measurements: PubChem BioAssay AID1347426

Experiment: Novel Modifiers of Survival Motor Neuron (SMN) Protein: Gene Identification via Genome-wide siRNA Screen;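 further: luminescence tracks full-length SMN protein made from the SMN2 reporter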
Conditions: HEK293T SMN2-luciferase reporter, siRNA knockdown, 72 h; actives lie on both sides
The campaign covered roughly 31,000 sequences. About 1,400 (4.5%) were called active.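 How the source made its calls: active means median seed-adjusted z-score above 1 or below -1; inactive means the rest.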 This excerpt belongs to a sample that is enriched for actives.
Outcome codes: yes (active), no (inactive)

- CHAIN_SEQUENCE: "GCCUUUUACGCAAACAUGUTT against P2RY8"
  CATEGORY_LABEL: "no"
- CHAIN_SEQUENCE: "AGGUGAUGCAGGACAGAAATT against COL18A1"
  CATEGORY_LABEL: "no"
- CHAIN_SEQUENCE: "GGACAUUUCAUGAGUCAUUTT against 8-Mar"
  CATEGORY_LABEL: "no"
- CHAIN_SEQUENCE: "GAGGCGCACUUCAAGCAUATT against CENTA1"
  CATEGORY_LABEL: "no"
- CHAIN_SEQUENCE: "AAACUAACAUUCGAUUGAATT against TRIM48"
  CATEGORY_LABEL: "no"
- CHAIN_SEQUENCE: "GAAGGGAAAUGAGUACCGATT against TRIM68"
  CATEGORY_LABEL: "no"
- CHAIN_SEQUENCE: "CGUUCGACCUGAUCGCAAATT against ODZ2"
  CATEGORY_LABEL: "no"
- CHAIN_SEQUENCE: "CCCUAAAGUUAAUCACCCATT against NUCB2"
  CATEGORY_LABEL: "no"
- CHAIN_SEQUENCE: "GGACCUGCAUAUGAAAGUATT against PCDH8"
  CATEGORY_LABEL: "yes"
- CHAIN_SEQUENCE: "GCUGUUAAGUAUGCCCUUATT against AKR1A1"
  CATEGORY_LABEL: "no"
- CHAIN_SEQUENCE: "UGAGCAGUGAGAACCCAUATT against PEAR1"
  CATEGORY_LABEL: "no"
- CHAIN_SEQUENCE: "CGACCGCACCUGGAAUGAATT against PLA2G4D"
  CATEGORY_LABEL: "no"
- CHAIN_SEQUENCE: "GCAGAACUGACAGUCGAUATT against DMTF1"
  CATEGORY_LABEL: "no"
- CHAIN_SEQUENCE: "GGAUGAACCCAAUCCCAAUTT against UBE2A"
  CATEGORY_LABEL: "no"
- CHAIN_SEQUENCE: "CGACACUUUCUAUCGACAATT against UBA3"
  CATEGORY_LABEL: "no"
- CHAIN_SEQUENCE: "GGCGAGGCUUUAUAGUUGATT against ZNF589"
  CATEGORY_LABEL: "no"
- CHAIN_SEQUENCE: "GGAUCUCACAGGUUCCGUUTT against LARS2"
  CATEGORY_LABEL: "no"
- CHAIN_SEQUENCE: "AGAAGUUCAUGGUCGGAGATT against SULT1A1"
  CATEGORY_LABEL: "no"
- CHAIN_SEQUENCE: "CUAUCACUGUCUCAAGUCATT against ITGA10"
  CATEGORY_LABEL: "no"
- CHAIN_SEQUENCE: "GCAGUGCGUUCAGUGCAAATT against FHL2"
  CATEGORY_LABEL: "no"
- CHAIN_SEQUENCE: "ACAUGCAGCUGGUAAGGAUTT against MFSD4"
  CATEGORY_LABEL: "yes"
- CHAIN_SEQUENCE: "CCUUAUCCGCUACCUCCAATT against TAF5L"
  CATEGORY_LABEL: "no"
- CHAIN_SEQUENCE: "GAACAUUGUUUGUAAGGCUTT against SUOX"
  CATEGORY_LABEL: "no"
- CHAIN_SEQUENCE: "GGGUAGGUGAUAUCCAUAUTT against ZBTB5"
  CATEGORY_LABEL: "no"
- CHAIN_SEQUENCE: "GGAUUUAUCAGAACCUUUATT against SLC25A15"
  CATEGORY_LABEL: "no"
- CHAIN_SEQUENCE: "CCAUCAAGCUCUACAAGGATT against TOP3B"
  CATEGORY_LABEL: "yes"
- CHAIN_SEQUENCE: "AACCUAUGCGUAUCCAGUATT against SNRPA"
  CATEGORY_LABEL: "yes"
- CHAIN_SEQUENCE: "GGUUGGUGAUGUCAAGUAUTT against CDKL2"
  CATEGORY_LABEL: "no"
- CHAIN_SEQUENCE: "GCUUUGUCACAUAACGUGATT against SLC38A2"
  CATEGORY_LABEL: "yes"
- CHAIN_SEQUENCE: "GGACCAACCCAGAAUCGUATT against MAOB"
  CATEGORY_LABEL: "no"
- CHAIN_SEQUENCE: "CCUGGAAACUACAAGCCCATT against SIRT3"
  CATEGORY_LABEL: "no"
- CHAIN_SEQUENCE: "GGAUUAACAUAUGAUGACATT against ADAM18"
  CATEGORY_LABEL: "no"
- CHAIN_SEQUENCE: "CCACCUUCCUUAUCGACAUTT against FZD8"
  CATEGORY_LABEL: "no"
- CHAIN_SEQUENCE: "GAACGGGUAUGUGGAGAUATT against INHBA"
  CATEGORY_LABEL: "no"
- CHAIN_SEQUENCE: "GAAAUCAGCCUAUGGUUUATT against NME2"
  CATEGORY_LABEL: "no"
- CHAIN_SEQUENCE: "GCAUUCGAAUUAUAGAACATT against SLC16A14"
  CATEGORY_LABEL: "no"
- CHAIN_SEQUENCE: "GGGUUGCUAGAAAAUCGUATT against USP37"
  CATEGORY_LABEL: "no"
- CHAIN_SEQUENCE: "CCAAGUCCCAUACAACAAATT against C1S"
  CATEGORY_LABEL: "no"
- CHAIN_SEQUENCE: "GCGAAUGAGUGGUAGAGGATT against ARHGAP21"
  CATEGORY_LABEL: "no"
- CHAIN_SEQUENCE: "GGACGAGCCUCAUGAAUGATT against SEC11B"
  CATEGORY_LABEL: "yes"
- CHAIN_SEQUENCE: "CGGCAACUUCAAUAACAGUTT against LPHN1"
  CATEGORY_LABEL: "yes"
- CHAIN_SEQUENCE: "CAGUUGAUUUAAGAGGUAATT against PRPF4B"
  CATEGORY_LABEL: "yes"
